Please respond with reported log10(IC50) for every item in the list.
- ASSAYED_TARGET: recombinant Human Phosphodiesterase B2 (PDE4B2) (Homo sapiens, UniProt Q07343)
- Sequence (Q07343 1-564 isoform Q07343-2): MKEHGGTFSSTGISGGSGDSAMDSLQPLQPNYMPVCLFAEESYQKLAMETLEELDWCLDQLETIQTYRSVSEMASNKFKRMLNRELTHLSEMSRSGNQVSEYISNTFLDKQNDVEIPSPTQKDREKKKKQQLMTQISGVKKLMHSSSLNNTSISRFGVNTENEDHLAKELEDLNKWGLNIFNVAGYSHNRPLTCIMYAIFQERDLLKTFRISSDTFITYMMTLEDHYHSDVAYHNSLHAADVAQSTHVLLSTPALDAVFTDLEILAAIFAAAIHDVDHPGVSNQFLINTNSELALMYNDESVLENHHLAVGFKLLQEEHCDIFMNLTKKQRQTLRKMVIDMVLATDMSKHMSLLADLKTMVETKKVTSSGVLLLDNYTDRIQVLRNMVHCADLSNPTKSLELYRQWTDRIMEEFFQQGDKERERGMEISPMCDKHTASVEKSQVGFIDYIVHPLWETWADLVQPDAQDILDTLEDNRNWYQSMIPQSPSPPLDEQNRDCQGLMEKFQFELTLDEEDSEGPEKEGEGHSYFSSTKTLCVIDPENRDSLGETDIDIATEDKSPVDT
- ASSAY_REMARKS: Human Phosphodiesterase B2 Radiometric Assay (yttrium silicate SPA beads, [3H]cyclic AMP)
- Format: biochemical
- STUDY_CONDITIONS: recombinant human PDE4B2, radiometric SPA assay, 8 nM [3H]cyclic AMP; read-out: PDE4B2 pIC50 (converted)
Where a name gives a salt, the structure may show the parent alone.
Scale: log10; quantity: IC50; unit before log: pM

Which log10(IC50) value is on record for CN1CCN(Cc2cc(O)ccc2-c2cccc(-n3c(=O)n([C@H]4CC[C@@H](NC(=O)c5cn6cc(F)ccc6n5)CC4)c(=O)c4cc(F)cnc43)c2)CC1 [Example 71, trifluoroacetate salt] ?
1.90

For CNC1CCN(Cc2cc(O)ccc2-c2cccc(-n3c(=O)n([C@H]4CC[C@@H](NC(=O)c5cn6cc(F)ccc6n5)CC4)c(=O)c4cc(F)cnc43)c2)CC1 [Example 73, trifluoroacetate salt] then?
1.40

Now the compound `C[C@@H]1COCCN1Cc1cc(O)ccc1-c1cccc(-n2c(=O)n([C@H]3CC[C@@H](NCc4cn5cc(F)ccc5n4)CC3)c(=O)c3cc(F)cnc32)c1`
1.50

Same again, this time with `C[C@@H]1CN(Cc2ccc(-c3cccc(-n4c(=O)n([C@H]5CC[C@@H](NC(=O)c6cn7cc(F)ccc7n6)CC5)c(=O)c5cc(F)cnc54)c3)cc2)C[C@H](C)N1`
0.80

Entry to check: `COc1ccc(CN[C@H]2CC[C@@H](n3c(=O)c4cc(F)cnc4n(-c4cccc(-c5ccc(CN6CCN(C(C)C)CC6)cc5)c4)c3=O)CC2)cc1OC(C)=O`
2.90

Similarly, `Cc1cc(C(=O)N[C@H]2CC[C@@H](n3c(=O)c4cc(F)cnc4n(-c4cccc(-c5ccc(CN(C)CCN(C)C)cc5)c4)c3=O)CC2)nn1C` ?
1.10

Same lookup for `C[C@@H]1CN(Cc2ccc(-c3cccc(-n4c(=O)n([C@H]5CC[C@@H](NC(=O)c6cc7ccccc7cn6)CC5)c(=O)c5cc(F)cnc54)c3)cc2)C[C@H](C)N1` , please.
1.70

Please give the result for `O=C(N[C@H]1CC[C@@H](n2c(=O)c3cc(F)cnc3n(-c3cccc(-c4ccccc4C(=O)O)c3)c2=O)CC1)c1cn2cc(F)ccc2n1` too.
3.80

Now the same for `Cc1n[nH]cc1C(=O)N[C@H]1CC[C@@H](n2c(=O)c3cc(F)cnc3n(-c3cccc(-c4ccc(CN5CCN(C(C)C)CC5)cc4)c3)c2=O)CC1`
2.10

Same again, this time with `CN(C)Cc1ccccc1-c1cccc(-n2c(=O)n([C@H]3CC[C@@H](NC(=O)c4cn5cc(F)ccc5n4)CC3)c(=O)c3cc(F)cnc32)c1`
1.00

Query `CC(C)NCCCc1ccc(-c2cccc(-n3c(=O)n([C@H]4CC[C@@H](NC(=O)c5cn6cc(F)ccc6n5)CC4)c(=O)c4cc(F)cnc43)c2)cc1` next
1.30

Also need C[C@H](O)CN(C)Cc1cc(O)ccc1-c1cccc(-n2c(=O)n([C@H]3CC[C@@H](NCc4cn5cc(F)ccc5n4)CC3)c(=O)c3cc(F)cnc32)c1 (relative stereo) , thanks.
3.30

Let us now turn to `C[C@H](CO)NCc1ccc(-c2cccc(-n3c(=O)n([C@H]4CC[C@@H](NC(=O)c5cn6cc(F)ccc6n5)CC4)c(=O)c4cc(F)cnc43)c2)cc1`
2.20

Value source: patent US20100204203A1
